molecular target: Menin (Homo sapiens); assay: Confirmation of Inhibitors Targeting the Menin-MLL Interaction in MLL Related Leukemias: Competition With Fluorescein Labeled MLL-derived Peptide; conditions: Fluorescence polarization, fluorescein-MLL peptide displacement from menin; series mostly up to 100 µM
Inconclusive results are not listed. Activity calls are given as the source filed them. The call rests on the fitted dose curve; in most records, active means well fitted inhibition curve with a large enough effect in the polarisation, with a control signal flat (not every such curve was filed as active); inconclusive means small, poorly fitted or top-dose-only effect, or effect the other way, or a change in a side signal; inactive means no such curve, though single readings can be large or run the other way; the % refers to the polarisation.
readout: outcome

Solved entries (count: 10):
COc1ccccc1NS(=O)(=O)c1cc(NC(=O)Nc2cccc(C)c2)ccc1N1CCCCC1 | inactive
O=C(O)/C(=C\c1ccc(F)cc1)c1ccc(-c2ccccc2)cc1 | inactive
CCCNC(=O)c1ccc2c(=O)c(O)c(C)[nH]c2c1 | inactive
Cc1cc2ncn(-c3ncnc4sc5c(c34)CCC(C)C5)c2cc1C (stereo not drawn) | inactive
O=C(Cn1c(=O)c2c3c(sc2n(Cc2ccccc2)c1=O)CCCC3)NCCO | inactive
COc1ccc(Cn2nnnc2C(c2ccccc2)N2CCN(C3CCCC3)CC2)cc1 (stereo not drawn) | inactive
COc1ccccc1CNCC(=O)Nc1ccc(C#N)cc1 | inactive
Cc1nc(C)c(-c2ccc(SCc3ccccc3F)nn2)s1 | inactive
Cn1c(=O)n(C)c2cc3[nH]cnc3cc21 | inactive
O=C(CSc1nnc(-c2c[nH]c3ccccc23)o1)c1ccc(-c2ccccc2)cc1 | inactive

Quick check: outcome of `COCCn1c(C)c(C)c2c(NCCc3ccccc3)ncnc21` ?
inactive

Sample `CC(=O)Nc1ccc(-c2cc(-c3ccc(NC(C)=O)cc3)nc(-c3ccc(NC(C)=O)cc3)n2)cc1` — what was its outcome?
inactive

Form field: reported outcome of `O=C(Nc1nnc(-c2ccccc2SCc2ccccc2)s1)Nc1ccccc1F`
inactive

* * *

target: Menin (Homo sapiens) (UniProt O00255); experiment: Confirmation of Inhibitors Targeting the Menin-MLL Interaction in MLL Related Leukemias: Competition With Fluorescein Labeled MLL-derived Peptide; details: Fluorescence polarization, fluorescein-MLL peptide displacement from menin; series mostly up to 100 µM
Sequence (O00255 whole entry, looked up): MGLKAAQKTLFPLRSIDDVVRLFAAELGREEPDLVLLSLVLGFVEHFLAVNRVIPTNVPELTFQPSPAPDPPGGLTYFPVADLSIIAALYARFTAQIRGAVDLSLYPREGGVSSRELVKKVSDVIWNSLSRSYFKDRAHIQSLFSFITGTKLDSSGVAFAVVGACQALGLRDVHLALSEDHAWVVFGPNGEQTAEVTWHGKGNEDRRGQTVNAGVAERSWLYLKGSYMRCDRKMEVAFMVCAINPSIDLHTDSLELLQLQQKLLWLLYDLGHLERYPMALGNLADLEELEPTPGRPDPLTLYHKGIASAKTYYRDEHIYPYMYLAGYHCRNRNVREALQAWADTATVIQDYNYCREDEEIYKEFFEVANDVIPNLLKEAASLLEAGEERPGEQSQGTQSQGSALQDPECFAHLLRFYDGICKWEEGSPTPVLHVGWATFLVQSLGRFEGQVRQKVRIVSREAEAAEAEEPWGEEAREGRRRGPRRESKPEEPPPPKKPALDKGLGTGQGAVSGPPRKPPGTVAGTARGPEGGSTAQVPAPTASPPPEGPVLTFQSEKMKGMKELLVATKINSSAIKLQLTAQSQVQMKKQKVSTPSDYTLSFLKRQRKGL
Inconclusive results are not listed. Activity calls are given as the source filed them. Calls follow the shape of the dose curve; as a rule, active = well fitted inhibition curve with a large enough effect in the polarisation, with a control signal flat (not every such curve was filed as active); inconclusive = small, poorly fitted or top-dose-only effect, or effect the other way, or a change in a side signal; inactive = no such curve, though single readings can be large or run the other way; the % refers to the polarisation.
readout: outcome

Examples with their reported outcome follow.
COc1ccc(CC(=O)Nc2ccc(-c3nnc(-c4ccccc4)o3)cc2)cc1 | inactive
CC1CCCCN1S(=O)(=O)c1ccc(C(=O)Nc2ccccc2-c2nc3ccccc3[nH]2)cc1 (configuration not stated) | inactive
COC(=O)C1[C@H]2SC(C)(C)C(C(=O)OC)N2C(=O)N1Cc1nc2ccccc2s1 (some centres not stated) | inactive
CC(=O)c1cccc(NS(=O)(=O)c2ccc(N/C=C\C(=O)c3ccc(F)cc3)cc2)c1 | inactive
COc1cc(O)c(C(=O)c2ccccc2)cc1O | inactive

// lookup outcome for `COc1cc(OC)cc(C(=O)N/N=C/c2ccc(OC)c(COc3ccc4ccccc4c3)c2)c1`
inactive

Which outcome is reported for this compound? `COc1ccc(OC)c(C(c2c(C)[nH][nH]c2=O)c2c(C)[nH][nH]c2=O)c1`
inactive

Any idea what its outcome is? The compound is `COc1cccc(C(=O)/C=C/Nc2ccc(S(=O)(=O)Nc3ccc(C(C)=O)cc3)cc2)c1`
inactive

Give its outcome value. Item: `Cc1cc(C)c2c(=O)cc(C(=O)NCc3ccccc3)oc2c1`
inactive

Item under review: `COc1ccc(S(=O)(=O)Nc2cc(SCC(=O)O)c(O)c3ccccc23)cc1` . Reported outcome?
inactive
